Target: Neuronal acetylcholine receptor; alpha4/beta2 (Rattus norvegicus, UniProt P09483+P12390)
Sequence (P09483 whole entry): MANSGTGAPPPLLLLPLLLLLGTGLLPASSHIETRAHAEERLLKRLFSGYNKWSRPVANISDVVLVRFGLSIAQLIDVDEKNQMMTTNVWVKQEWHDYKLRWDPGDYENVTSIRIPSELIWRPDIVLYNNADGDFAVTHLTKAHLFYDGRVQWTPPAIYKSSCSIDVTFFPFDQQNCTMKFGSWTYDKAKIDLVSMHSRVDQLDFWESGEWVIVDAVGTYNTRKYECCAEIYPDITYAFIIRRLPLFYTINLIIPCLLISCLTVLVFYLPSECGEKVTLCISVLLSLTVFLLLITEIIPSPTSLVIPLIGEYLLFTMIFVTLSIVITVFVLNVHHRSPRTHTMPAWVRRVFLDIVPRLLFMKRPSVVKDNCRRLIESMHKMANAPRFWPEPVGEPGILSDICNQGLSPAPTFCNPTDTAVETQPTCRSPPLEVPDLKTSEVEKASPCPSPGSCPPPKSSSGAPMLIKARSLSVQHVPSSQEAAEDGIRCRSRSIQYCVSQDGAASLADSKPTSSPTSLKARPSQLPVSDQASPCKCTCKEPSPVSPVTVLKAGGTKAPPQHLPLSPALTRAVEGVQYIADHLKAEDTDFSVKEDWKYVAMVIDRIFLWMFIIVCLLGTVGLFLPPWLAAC
Sequence (P12390 whole entry): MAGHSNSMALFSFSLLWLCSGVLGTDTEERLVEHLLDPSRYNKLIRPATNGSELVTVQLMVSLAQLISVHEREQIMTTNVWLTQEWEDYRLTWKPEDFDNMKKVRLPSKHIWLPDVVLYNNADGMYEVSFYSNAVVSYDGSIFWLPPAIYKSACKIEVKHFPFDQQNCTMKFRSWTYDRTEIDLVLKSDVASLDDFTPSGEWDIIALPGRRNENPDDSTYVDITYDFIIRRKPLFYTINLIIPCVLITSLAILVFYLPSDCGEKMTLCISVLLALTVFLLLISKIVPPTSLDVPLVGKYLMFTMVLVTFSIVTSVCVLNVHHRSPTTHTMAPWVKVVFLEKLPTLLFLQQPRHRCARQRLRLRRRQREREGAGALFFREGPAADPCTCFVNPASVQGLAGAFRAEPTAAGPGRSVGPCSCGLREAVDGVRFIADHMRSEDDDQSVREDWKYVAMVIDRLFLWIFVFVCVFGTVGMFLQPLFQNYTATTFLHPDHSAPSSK
Experiment: Displacement of [3H]epibatidine from alpha-4-beta-2 nAChR in rat brain cortex membrane
OBSERVATION_TYPE: pKi
Expect pKi as a plain number equal to -log10 of the molar concentration.

Example results:
CN1CCC[C@@H]1[C@@H]1CNC(=O)O1    4.10
CN1CCC[C@H]1[C@H]1CNC(=O)O1    4.21
CN1CCC[C@@H]1[C@H]1COc2ccccc2O1.Cl    5.59

Now examine the next entry.
# input pKi for CN1CCC[C@H]1[C@@H]1COc2ccccc2O1.Cl ?
# output 6.21

====

Biological target: Neuronal acetylcholine receptor subunit alpha-7 (Rattus norvegicus)
Sequence (Q05941 whole entry): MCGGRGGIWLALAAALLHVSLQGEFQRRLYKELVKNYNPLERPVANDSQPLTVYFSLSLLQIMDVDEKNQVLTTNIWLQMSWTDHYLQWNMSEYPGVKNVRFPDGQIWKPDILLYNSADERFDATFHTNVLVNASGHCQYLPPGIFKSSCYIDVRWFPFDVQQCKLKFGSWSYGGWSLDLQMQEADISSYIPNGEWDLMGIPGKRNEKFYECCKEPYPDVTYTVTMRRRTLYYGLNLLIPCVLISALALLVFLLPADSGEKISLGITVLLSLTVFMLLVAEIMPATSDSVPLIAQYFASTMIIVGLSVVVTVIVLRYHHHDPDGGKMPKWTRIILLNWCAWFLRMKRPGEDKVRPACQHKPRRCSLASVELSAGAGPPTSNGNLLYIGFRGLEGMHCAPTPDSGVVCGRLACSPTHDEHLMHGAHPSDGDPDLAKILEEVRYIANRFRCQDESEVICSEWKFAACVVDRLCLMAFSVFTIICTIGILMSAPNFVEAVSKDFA
Assay: Displacement of [3H]alpha-Bungarotoxin from alpha-7 nAChR in rat brain cortex membranes
OBSERVATION_TYPE: Ki

CN1CCC[C@@H]1[C@H]1COc2ccccc2O1.Cl    45 µM
CN1CCC[C@@H]1[C@@H]1CNC(=O)O1    338 µM
CN1CCC[C@H]1[C@H]1CNC(=O)O1    117 µM

Now examine the next entry.
# input Ki for CN1CCC[C@H]1[C@@H]1COc2ccccc2O1.Cl ?
# output 12 µM

# credit: ChEMBL document CHEMBL1139700
